Quick reference for MIC E. coli ATCC 25922 among some molecules
System: E. coli ATCC 25922
conditionsUsed: ATCC 25922
Positions of bridges follow the written chain, without caps; N, C: chain ends. Non-standard residues stand in square brackets, D forms with d. Residues, ends and D or L forms follow the SMILES beside them. *: point of attachment. Ala(benzothiazol-2-yl) = N[C@@H](Cc1nc2ccccc2s1)C(=O)O; Decanoyl(3R-OH) = CCCCCCC[C@@H](O)CC(=O)*; Lauroyl = CCCCCCCCCCCC(=O)*; dDab = NCC[C@@H](N)C(=O)O; Octanoyl = CCCCCCCC(=O)*; dDap = NC[C@@H](N)C(=O)O; Dab = NCC[C@H](N)C(=O)O
Lab book: enter the figure in µg/mL, no units written.

The following molecules have reported results that may help.
CCCCCCC[C@@H](O)CC(=O)N[C@H](CCN)C(=O)N[C@H]1CCNC(=O)[C@H](Cc2ccc(O)cc2)NC(=O)[C@H](CCN)NC(=O)[C@H](CCN)NC(=O)[C@H](CC(C)C)NC(=O)[C@@H](Cc2ccccc2)NC(=O)[C@H](CCN)NC1=O [compound 6511] ({Decanoyl(3R-OH)}-[dDab][Dab][Dab][dF]L[Dab][Dab]Y; lactam 2-C) | 8
CCCCCCC[C@@H](O)CC(=O)N[C@H](CCN)C(=O)N[C@H]1CCNC(=O)[C@H](Cc2nc3ccccc3s2)NC(=O)[C@H](CCN)NC(=O)[C@H](CCN)NC(=O)[C@H](CC(C)C)NC(=O)[C@@H](Cc2ccccc2)NC(=O)[C@H](CCN)NC1=O [compound 8910] ({Decanoyl(3R-OH)}-[dDab][Dab][Dab][dF]L[Dab][Dab][Ala(benzothiazol-2-yl)]; lactam 2-C) | 2
CCCCCCCCCCCC(=O)N[C@H](CN)C(=O)N[C@H]1CCNC(=O)[C@H](CC(C)C)NC(=O)[C@H](CCN)NC(=O)[C@H](CCN)NC(=O)[C@H](CC(C)C)NC(=O)[C@@H](Cc2ccccc2)NC(=O)[C@H](CCN)NC1=O [compound 9297] (Lauroyl-[dDap][Dab][Dab][dF]L[Dab][Dab]L; lactam 2-C) | 2
CCCCCCCC(=O)N[C@H](CN)C(=O)N[C@H]1CCNC(=O)[C@H](Cc2c[nH]c3ccccc23)NC(=O)[C@H](CCN)NC(=O)[C@H](CCN)NC(=O)[C@H](CC(C)C)NC(=O)[C@@H](Cc2ccccc2)NC(=O)[C@H](CCN)NC1=O [compound 8887] (Octanoyl-[dDap][Dab][Dab][dF]L[Dab][Dab]W; lactam 2-C) | 8

Could you now consider this next molecule?
Ask | Given the molecule CCCCCCCC(=O)N[C@H](CCN)C(=O)N[C@H]1CCNC(=O)[C@H]([C@@H](C)O)NC(=O)[C@H](CCN)NC(=O)[C@H](CCN)NC(=O)[C@H](CC(C)C)NC(=O)[C@@H](Cc2ccccc2)NC(=O)[C@H](CCN)NC1=O [compound 6399] (Octanoyl-[dDab][Dab][Dab][dF]L[Dab][Dab]T; lactam 2-C) , write its reported MIC E. coli ATCC 25922.
Reply | 8

====

System: E. coli ATCC 25922
conditionsUsed: ATCC 25922
Positions of bridges follow the written chain, without caps; N, C: chain ends. Non-standard residues stand in square brackets, D forms with d. Residues, ends and D or L forms follow the SMILES beside them. *: point of attachment. Decanoyl(3R-OH) = CCCCCCC[C@@H](O)CC(=O)*; Igl = N[C@H](C(=O)O)C1Cc2ccccc2C1; dDap = NC[C@@H](N)C(=O)O; Dab = NCC[C@H](N)C(=O)O
quantityKind: MIC E. coli ATCC 25922

CCCCCCC[C@@H](O)CC(=O)N[C@H](CN)C(=O)N[C@H]1CCNC(=O)[C@H](Cc2c[nH]c3ccccc23)NC(=O)[C@H](CCCCN)NC(=O)[C@H](CCCNC(=N)N)NC(=O)[C@H](C2Cc3ccccc3C2)NC(=O)[C@@H](Cc2ccccc2)NC(=O)[C@H](CCN)NC1=O [compound 8890] ({Decanoyl(3R-OH)}-[dDap][Dab][Dab][dF][Igl]RKW; lactam 2-C) | 2 µg/mL

Ask | Given the molecule CCCCCCC[C@@H](O)CC(=O)N[C@H](CN)C(=O)N[C@H]1CCNC(=O)[C@H](Cc2c[nH]c3ccccc23)NC(=O)[C@H](CCCNC(=N)N)NC(=O)[C@H](CCCCN)NC(=O)[C@H](C2Cc3ccccc3C2)NC(=O)[C@@H](Cc2ccccc2)NC(=O)[C@H](CCN)NC1=O [compound 8888] ({Decanoyl(3R-OH)}-[dDap][Dab][Dab][dF][Igl]KRW; lactam 2-C) , write its reported MIC E. coli ATCC 25922.
Reply | 2 µg/mL

Ask | Given the molecule CCCCCCC[C@@H](O)CC(=O)NCC(=O)N[C@H]1CCNC(=O)[C@H](CC(C)C)NC(=O)[C@H](CCN)NC(=O)[C@H](CCN)NC(=O)[C@H](Cc2ccccc2)NC(=O)[C@@H](CC(C)C)NC(=O)[C@H](CCN)NC1=O [compound 6431] ({Decanoyl(3R-OH)}-G[Dab][Dab][dL]F[Dab][Dab]L; lactam 2-C) , write its reported MIC E. coli ATCC 25922.
Reply | 16 µg/mL

====

Tested on: E. coli ATCC 25922
conditionsUsed: ATCC 25922
Positions of bridges follow the written chain, without caps; N, C: chain ends. Non-standard residues stand in square brackets, D forms with d. Residues, ends and D or L forms follow the SMILES beside them. *: point of attachment. Decanoyl(3R-OH) = CCCCCCC[C@@H](O)CC(=O)*; X4 = CCCCCOc1ccc(C(=O)*)cc1; dDab = NCC[C@@H](N)C(=O)O; Heptanoyl = CCCCCCC(=O)*; Nle = CCCC[C@H](N)C(=O)O; dDap = NC[C@@H](N)C(=O)O; Dab = NCC[C@H](N)C(=O)O; Nva = CCC[C@H](N)C(=O)O
Quick reference for MIC E. coli ATCC 25922 among some compounds
Lab book: enter the figure in µg/mL, no units written.

CCCCCCC[C@@H](O)CC(=O)N[C@H](Cc1c[nH]c2ccccc12)C(=O)N[C@H]1CCNC(=O)[C@H](CC(C)C)NC(=O)[C@H](CCN)NC(=O)[C@H](CCN)NC(=O)[C@H](Cc2ccccc2)NC(=O)[C@@H](CC(C)C)NC(=O)[C@H](CCN)NC1=O [compound 6426] ({Decanoyl(3R-OH)}-[dW][Dab][Dab][dL]F[Dab][Dab]L; lactam 2-C) | 4

Ask | Given the compound CCCCCOc1ccc(C(=O)N[C@H](CCN)C(=O)N[C@H]2CCNC(=O)[C@H](CC(C)C)NC(=O)[C@H](CCN)NC(=O)[C@H](CCN)NC(=O)[C@H](Cc3ccccc3)NC(=O)[C@@H](CC(C)C)NC(=O)[C@H](CCN)NC2=O)cc1 [compound 6520] (X4-[dDab][Dab][Dab][dL]F[Dab][Dab]L; lactam 2-C) , write its reported MIC E. coli ATCC 25922.
Reply | 2

Ask | Given the compound CCCCCCC(=O)N[C@H](CN)C(=O)N[C@H]1CCNC(=O)[C@H](CC(C)C)NC(=O)[C@H](CCN)NC(=O)[C@H](CCN)NC(=O)[C@H](CC(C)C)NC(=O)[C@@H](Cc2ccccc2)NC(=O)[C@H](CCN)NC1=O [compound 9190] (Heptanoyl-[dDap][Dab][Dab][dF]L[Dab][Dab]L; lactam 2-C) , write its reported MIC E. coli ATCC 25922.
Reply | 8

Ask | Given the compound CCCCCCC[C@@H](O)CC(=O)N[C@H](CCN)C(=O)N[C@H]1CCNC(=O)[C@H](CC(C)C)NC(=O)[C@H](C)NC(=O)[C@H](CCN)NC(=O)[C@H](CC(C)C)NC(=O)[C@@H](Cc2ccccc2)NC(=O)[C@H](CCN)NC1=O [compound 4944] ({Decanoyl(3R-OH)}-[dDab][Dab][Dab][dF]L[Dab]AL; lactam 2-C) , write its reported MIC E. coli ATCC 25922.
Reply | 16

Ask | Given the compound CCCCCCC[C@@H](O)CC(=O)N[C@H](CN)C(=O)N[C@H]1CCNC(=O)[C@H](CC(C)C)NC(=O)[C@H](CCN)NC(=O)[C@H](CCN)NC(=O)[C@H](CCC)NC(=O)[C@@H](Cc2ccccc2)NC(=O)[C@H](CCN)NC1=O [compound 9293] ({Decanoyl(3R-OH)}-[dDap][Dab][Dab][dF][Nva][Dab][Dab]L; lactam 2-C) , write its reported MIC E. coli ATCC 25922.
Reply | 4

Ask | Given the compound CCCCCOc1ccc(C(=O)N[C@H](CCN)C(=O)N[C@H]2CCNC(=O)[C@H](CC(C)C)NC(=O)[C@H](CCN)NC(=O)[C@H](CCN)NC(=O)[C@H](CC(C)C)NC(=O)[C@@H](Cc3ccccc3)NC(=O)[C@H](CCN)NC2=O)cc1 [compound 6528] (X4-[dDab][Dab][Dab][dF]L[Dab][Dab]L; lactam 2-C) , write its reported MIC E. coli ATCC 25922.
Reply | 2

Ask | Given the compound CCCCCCC[C@@H](O)CC(=O)N[C@H](CN)C(=O)N[C@H]1CCNC(=O)[C@H](CC(C)C)NC(=O)[C@H](CCN)NC(=O)[C@H](CCN)NC(=O)[C@H](CCCC)NC(=O)[C@@H](Cc2ccccc2)NC(=O)[C@H](CCN)NC1=O [compound 9294] ({Decanoyl(3R-OH)}-[dDap][Dab][Dab][dF][Nle][Dab][Dab]L; lactam 2-C) , write its reported MIC E. coli ATCC 25922.
Reply | 4
